Target: Human adrenergic α2B receptor (Homo sapiens)
Sequence (P18089 1-450): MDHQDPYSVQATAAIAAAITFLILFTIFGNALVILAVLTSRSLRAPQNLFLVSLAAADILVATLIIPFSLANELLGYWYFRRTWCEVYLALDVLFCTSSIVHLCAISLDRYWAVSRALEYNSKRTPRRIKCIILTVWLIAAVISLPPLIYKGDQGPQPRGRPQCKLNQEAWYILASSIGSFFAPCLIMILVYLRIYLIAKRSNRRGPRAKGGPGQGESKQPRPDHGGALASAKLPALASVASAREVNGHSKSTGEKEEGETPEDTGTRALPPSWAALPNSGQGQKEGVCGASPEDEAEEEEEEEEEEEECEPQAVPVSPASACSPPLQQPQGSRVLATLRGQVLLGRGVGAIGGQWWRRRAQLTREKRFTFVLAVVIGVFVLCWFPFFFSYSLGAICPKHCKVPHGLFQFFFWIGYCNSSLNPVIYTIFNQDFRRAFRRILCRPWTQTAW
Test: Radioligand binding, adrenergic α2B (Protocol Group B)
Design: purchased Milipore (Millipore)
Conditions: 30 nM compound; Protocol Group B; 0.03 µM
READOUT: Percentage inhibition of ligand binding, Adrenergic α2B (30 nM) (%)

Example results:
compound="Cc1ccc2c(c1)c1c(n2CC(C)(O)c2ccncc2)CC2CCCN2C1 (single isomer, unassigned) [37b]" unit_abbrev=% result_number=48
compound="Cc1ccc2c(c1)c1c(n2CC(OCC2CCC2)c2ccncc2)CCN2CCCC12 (single isomer, unassigned) [138b]" unit_abbrev=% result_number=81
compound="CC(O)(Cn1c2c(c3cc(F)cc(Cl)c31)C1CCCN1CC2)c1cccnc1 (single isomer, unassigned) [89b]" unit_abbrev=% result_number=1
compound="Cc1ccc2c(c1)c1c(n2CC(C)(O)c2cccnc2)CC2CCCN2C1 (centres unmarked) [41a]" unit_abbrev=% result_number=51
compound="CC(O)(Cn1c2c(c3cc(F)cc(Cl)c31)C1CCCN1CC2)c1cccnc1 (single isomer, unassigned) [89d]" unit_abbrev=% result_number=115

a. Cc1cc(F)cc2c3c(n(CC(O)c4ccncc4)c12)CCN1CCCC31 (single isomer, unassigned) [136b]
b. OC(Cn1c2c(c3cc(F)ccc31)C1CCCN1CC2)c1ccncc1 (single isomer, unassigned) [18a]
Data request: Which entry has a larger number for Percentage inhibition of ligand binding, Adrenergic α2B (30 nM), a or b ? Return value: the label identifying the chosen record.
Data returned: a

----------
Target: Human adrenergic α2A receptor (Homo sapiens)
Sequence (P08913 whole entry): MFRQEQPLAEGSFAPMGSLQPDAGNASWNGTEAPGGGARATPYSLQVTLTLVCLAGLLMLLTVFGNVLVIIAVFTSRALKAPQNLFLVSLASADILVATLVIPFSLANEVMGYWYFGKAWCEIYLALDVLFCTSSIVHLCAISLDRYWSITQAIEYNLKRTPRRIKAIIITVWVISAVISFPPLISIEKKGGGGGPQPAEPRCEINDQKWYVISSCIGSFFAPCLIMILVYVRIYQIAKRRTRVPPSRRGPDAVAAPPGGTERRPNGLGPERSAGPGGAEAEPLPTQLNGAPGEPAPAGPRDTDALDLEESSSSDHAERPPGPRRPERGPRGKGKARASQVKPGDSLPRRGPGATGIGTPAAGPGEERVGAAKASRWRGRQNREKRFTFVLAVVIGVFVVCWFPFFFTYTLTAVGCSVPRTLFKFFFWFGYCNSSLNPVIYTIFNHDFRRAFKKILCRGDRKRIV
Experiment: Radioligand binding, adrenergic α2A (Protocol Group B)
Design: purchased Milipore (Millipore)
Conditions: 0.1 μM compound; Protocol Group B; read-out: Percentage inhibition of ligand binding, Adrenergic α2A (0.1 μM)
READOUT: inhibition at 0.1 µM (%)

compound="Cc1ccc2c(c1)c1c(n2CC(C)(O)c2ccc(F)cc2)CC2CCC1N2C (single isomer, unassigned) [102b]" result_number=-1
compound="Cc1cc(F)c2c(c1)c1c(n2CC(C)(O)c2ccncc2)CCN2CCCC12 (single isomer, unassigned) [81a]" result_number=71
compound="CC(O)(Cn1c2c(c3cc(Cl)cc(F)c31)CN1CCCC1C2)c1cccnc1 (single isomer, unassigned) [63c]" result_number=8
compound="Cc1ccc2c(c1)c1c(n2CC(C)(O)c2cnccc2F)CCN(C)C1 (centres unmarked)" result_number=5
compound="Cc1cc(C)c2c(c1)c1c(n2CC(O)C2CCCCC2)CCN2CCCC12 (centres unmarked) [141a]" result_number=85
compound="CC(O)(Cn1c2c(c3cc(Cl)cc(F)c31)C1CCCN1CC2)c1ccncc1 (single isomer, unassigned) [52a]" result_number=80

I. Cc1ccc2c(c1)c1c(n2CC(OCC2CCC2)c2ccncc2)CCN(C)C1 (single isomer, unassigned) [59a]
II. CC(O)(Cn1c2c(c3cc(Cl)cc(F)c31)CN1CCCC1C2)c1ccncc1 (single isomer, unassigned) [86c]
Data request: Compare I and II by numeric inhibition at 0.1 µM and name the larger one. Respond using the label that marks the chosen record.
Data returned: I
